Cited source: patent US20150290200A1

measurement.target: BTK kinase domain (Homo sapiens, UniProt Q06187)
Construct: The kinase domains of BTK, LCK and ERK were expressed as recombinant purified proteins; made in house
Sequence (Q06187 402-655 limits assumed): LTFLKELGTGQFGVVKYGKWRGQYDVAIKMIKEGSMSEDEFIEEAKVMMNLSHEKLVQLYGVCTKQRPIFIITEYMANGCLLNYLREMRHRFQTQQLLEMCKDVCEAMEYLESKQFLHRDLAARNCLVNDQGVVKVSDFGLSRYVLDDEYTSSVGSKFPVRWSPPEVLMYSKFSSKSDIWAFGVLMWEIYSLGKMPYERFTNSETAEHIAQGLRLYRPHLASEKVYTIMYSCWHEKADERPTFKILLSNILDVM
assay.overview: In vitro kinase assay (HITHUNTER), BTK
Format: biochemical
condition.context: Table 2
Source text: Similarly, commercially available reagents such as HITHUNTER™ were used to evaluate the effect of compounds on the activity of additional kinases. The kinase domains of BTK, LCK and ERK were expressed as recombinant purified proteins were used for these studies.
assay.endpoint: IC50 (nM)

Worked cases, IC50 given:
1. Cc1ccc(C(=O)CCN2CCOCC2)c(C)c1 ... 1480
2. O=C(CCN1CCOCC1)c1cccc(Cl)c1 ... 775
3. O=C(CCN1CCOCC1)c1ccc(OC(F)(F)F)cc1 ... 1310
4. O=C(CCN1CCOCC1)c1cccc(F)c1 ... 3030
5. COc1cc(OC)cc(C(=O)CCN2CCOCC2)c1 ... 425

(a) O=C(CCN1CCOCC1)c1cccc(C(F)(F)F)c1
(b) Cc1ccc(C(=O)CCN2CCOCC2)cc1
Response body: label of entry with the larger IC50; valid values a , b . Kindly give the label for the entry you pick.
b
(b: 1520 nM, a: 656 nM)
